Every entry's value here was drawn from patent US20230235075A1.

Molecular target: T1, Human CD93 on the cell surface (human CD93 expressing CHO cells; HUVEC, U937 and KG1a cells) (human, UniProt Q9NPY3 22-652)
T1 construct: whole, on cells; also called hCD93 CHO cells; CHO-hCD93
T1 sequence (looked up): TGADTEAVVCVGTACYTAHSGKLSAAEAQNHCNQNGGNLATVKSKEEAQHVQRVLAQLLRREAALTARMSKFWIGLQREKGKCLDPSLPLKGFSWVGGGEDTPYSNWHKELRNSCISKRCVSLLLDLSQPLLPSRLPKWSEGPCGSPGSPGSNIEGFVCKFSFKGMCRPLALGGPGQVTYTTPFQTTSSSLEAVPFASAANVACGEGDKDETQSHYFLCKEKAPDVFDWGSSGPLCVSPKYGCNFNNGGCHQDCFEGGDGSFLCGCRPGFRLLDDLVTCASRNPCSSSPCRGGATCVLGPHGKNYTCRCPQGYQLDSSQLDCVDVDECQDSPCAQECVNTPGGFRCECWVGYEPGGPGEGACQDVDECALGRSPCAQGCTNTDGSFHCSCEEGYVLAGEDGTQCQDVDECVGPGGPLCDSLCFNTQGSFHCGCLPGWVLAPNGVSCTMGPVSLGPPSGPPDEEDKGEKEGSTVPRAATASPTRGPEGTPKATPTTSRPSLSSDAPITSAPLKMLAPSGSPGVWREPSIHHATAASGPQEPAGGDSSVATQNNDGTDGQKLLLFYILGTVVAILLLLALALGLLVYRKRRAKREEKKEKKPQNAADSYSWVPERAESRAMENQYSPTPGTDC
Assay: FACS, CHO cells overexpressing human CD93
Parameter: binding result

Humanized 17B10 H2L3 (antibody, mouse IgG1, V domains shown) VH: QVQLVQSGAEVVKSGASVKVSCKASGYAFSSYWLNWVRQAPGQGLEWFGRIYPGDGDTDYNGKFKGRVTLIRDTSTSTVYMELTSLTSEDTAVYYCVRGDGYWAMDYWGQGTLVTVSS VL: DIVMTQSPDSLAVSLGERATINCRFSKSLLHSNGITYLYWYQQKPGQPPKLLIYQMSNLASGVPDRFSGSGSGTDFTLTISSLQAEDVAVYYCAQNLELPWTFGGGTKLEIK = binds
Humanized 17B10 H1L2 (antibody, mouse IgG1, V domains shown) VH: QVQLVQSGAEVKKPGSSVKVSCKASGYAFSSYWLNWVRQAPGQGLEWFGRIYPGDGDTDYNGKFKGRVTLTADKSTSTAYMELSSLRSEDTAVYFCVRGDGYWAMDYWGQGTTVTVSS VL: DIVMTQTPLSLPVTPGEPASISCRFSQSLLHSNGITYLYWYLQKPGQSPQLLIYTMSNLASGVPDRFSGSGSGTDFTLKISRVEAEDVGVYYCAQNLELPWTFGGGTKLEIK = binds
Humanized 17B10 H1L1 (antibody, mouse IgG1, V domains shown, Chimeric Fc: mouse IgG1 CH2 and CH3 domains and human CH1 domains) VH: QVQLVQSGAEVKKPGSSVKVSCKASGYAFSSYWLNWVRQAPGQGLEWFGRIYPGDGDTDYNGKFKGRVTLTADKSTSTAYMELSSLRSEDTAVYFCVRGDGYWAMDYWGQGTTVTVSS VL: DIVMTQSPLSLPVTPGEPASISCRFSQSLLHSNGITYLYWYLQKPGQSPQLLIYQMSNLASGVPDRFSGSGSGTDFTLKISRVEAEDVGVYYCAQNLELPWTFGGGTKLEIK = binds
